# Tested on: SW-620
# measurement_notes: NCI tumour cell line growth inhibition, 48 h
Activity calls are given as the source filed them. Rule as the data show it: active = GI50 up to about 1.1 µM and inactive = higher.
Please respond with reported GI50 for every item in the list.

Batch of 4 compounds: report GI50 for each.
1. COC1=C2C[C@H](O)C(C)C[C@@]2(OC)OC1=O (stereo partly specified)
2. Oc1ccc(Cl)cc1C1=NC(NCN2CCN(CNC3=NC(c4ccccc4)CC(c4cc(Cl)ccc4O)=N3)CC2)=NC(c2ccccc2)C1 (stereo unspecified)
3. NP1(Oc2ccc(F)cc2)=NP(N)(Oc2ccc(F)cc2)=NP(Oc2ccc(F)cc2)(Oc2ccc(F)cc2)=N1 (stereo unspecified)
4. Cc1cccc(-c2cccc(COCc3cccc(-c4cccc(CO)n4)n3)n2)n1

> 100 µM (inactive)
33.1 µM (inactive)
12.4 µM (inactive)
> 50 µM (inactive)

Batch of 2 compounds: report GI50 for each.
1. CCN(CC)C(=O)CNC(=O)OC(C)(C)C
2. Clc1ccc(Cn2cc(/C=N/n3cnnc3)c3ccccc32)cc1

1. > 100 µM (inactive)
2. > 100 µM (inactive)

----------
# Tested on: EKVX
# measurement_notes: NCI tumour cell line growth inhibition, 48 h
Calls of active or inactive are those of the source. Rule as the data show it: active = GI50 up to about 1.1 µM and inactive = higher.
Please respond with reported GI50 for every item in the list.

Consider the worked cases shown below.
CCN(CC)CCNc1ccc2ncn3c4ccc(O)cc4c(=O)c1c23
7.28 µM (inactive)
CC#CCOC(=O)c1ccccc1OC(C)=O
> 100 µM (inactive)
COc1ccc(CC(N)c2ccc(OC)cc2)cc1 (centres undefined)
> 100 µM (inactive)
O=C(O)c1ccc(C2C3C=CC(C3)C2[N+](=O)[O-])cc1 (centres undefined)
> 100 µM (inactive)
O=P1(Oc2ccccc2)C(c2ccccc2)C(c2ccccc2)=NN1c1ccccc1 (centres undefined)
37.3 µM (inactive)
COc1ccc(NC(=O)CC2SC(Nc3ccc(Cl)cc3C)=NC2=O)c([N+](=O)[O-])c1 (centres undefined)
> 100 µM (inactive)

Batch of 7 compounds: report GI50 for each.
1. C=CCC(C(=O)Nc1cccc2nc[nH]c12)C(=O)OCC (centres undefined)
2. [N-]=[N+]=Nc1cc(=O)n2c3c(cccc13)CCC2
3. Cc1nc2ccccc2n1COC(Cn1ccnc1)c1ccc(Cl)cc1Cl (centres undefined)
4. CC1CC2C3CC(F)C4=CC(=O)C=CC4(C)C3(F)C(O)CC2(C)C1(O)C(=O)COC(=O)C(C)(C)C (centres undefined)
5. O=C(OC1CCC(=C2SCCCS2)[C@H]1C1SCCCS1)c1ccccc1 (some centres undefined)
6. COc1ccccc1N1C(=O)/C(=C\c2ccccc2)SC1c1cc(OC)c(OC)c(OC)c1 (centres undefined)
7. O=S(O)CCCCCSSc1ccc(Cl)cc1

1: > 100 µM (inactive); 2: 43.7 µM (inactive); 3: 7.1 µM (inactive); 4: > 100 µM (inactive); 5: > 100 µM (inactive); 6: 37.8 µM (inactive); 7: 39.1 µM (inactive)

Batch of 4 compounds: report GI50 for each.
1. CC1OC(OC2C(OC(=O)[C@@H]3CC(C)(C)C[C@H]4C5=CC[C@@H]6[C@@]7(C)C[C@H](O)[C@H](OC8OC(CO)C(O)C(O)C8O)[C@@](C)(CO)[C@@H]7[C@H](O)C[C@@]6(C)[C@]5(C)CC[C@@]34C)OCC(O)C2O)C(O)C(O)C1O (some centres undefined)
2. N#CCc1nc(-c2cc3ccc(O)cc3oc2=O)cs1
3. Cc1c2c(c(C)n1-c1ccccc1)C(=O)N(CCCCN1CCN(c3ccccc3)CC1)C2=O
4. Cc1cc(C)c(S(=O)(=O)N2CCN(S(=O)(=O)c3c(C)cc(C)cc3C)OCCCCCO2)c(C)c1

1: > 7.5 µM (inactive); 2: 63 µM (inactive); 3: 10 µM (inactive); 4: > 100 µM (inactive)

Batch of 2 compounds: report GI50 for each.
1. CC(C)(C)OC(=O)NCC(c1c[nH]c2ccccc12)c1c[nH]c2ccccc12
2. CC(C)(C)/N=C\N1CCC(C(c2ccccc2)c2ccccc2)CC1

["12.7 µM (inactive)", "> 100 µM (inactive)"]

----------
# System: SW-620
# measurement_notes: NCI tumour cell line growth inhibition, 48 h
Calls of active or inactive are those of the source. Cut-off read from the data, not from the text of the source: active = GI50 up to about 1.1 µM and inactive = higher.
Your response should consist of one outcome taken from active, inactive

Below, 5 compounds whose answers are already recorded.
COc1cc(-c2c[nH]c3ccccc23)nc(-c2c[nH]c3ccccc23)n1
inactive
C[C@H]1CC(=O)C2=CCCC3(SCCCS3)[C@@H]2[C@H]1CO
inactive
COc1ccc2nc3cc(Cl)ccc3c(NCCCN(CCCl)CCCl)c2c1
active
CCC(C)(C)c1ccc(OCCCCNC(=O)c2ccc3ccccc3c2O)c(C(C)(C)CC)c1
inactive
CC1=CC(=O)/C(=C/NC(=O)NN)C(=O)O1
inactive

Short answer needed: outcome of this test for O=C(c1ccccc1)c1ccc2c(c1)nc1n2C(c2c(F)cccc2F)SC1 (stereo unspecified) ? inactive

Short answer needed: outcome of this test for Cc1ccc(S(=O)(=O)N2CCC(=O)c3cc(Br)ccc32)cc1 ? inactive

Short answer needed: outcome of this test for Cc1nc2c(o1)/C(=N\c1ccccc1)c1ccccc1C2=O ? inactive

Short answer needed: outcome of this test for CN(C)c1nncc2[nH]nnc12 ? inactive

Short answer needed: outcome of this test for CN(C)CCNC(=O)c1cccc(NC(=O)c2ccccc2)c1[N+](=O)[O-] ? inactive

Short answer needed: outcome of this test for COC(=O)c1ccc(-n2c(C)nc(=O)c(-c3ccccc3)c2C)cc1 ? inactive

Short answer needed: outcome of this test for Nn1c(Nc2ccc(S(N)(=O)=O)cc2)nnc(/C=C/c2c(O)ccc3ccccc23)c1=O ? inactive

Short answer needed: outcome of this test for N#CCCN(CCC#N)c1ccc(/C=C2\N=C(c3ccccc3)N(c3ccccn3)C2=O)cc1 ? inactive

Short answer needed: outcome of this test for O=C1N(CN2CCOCC2)CN(CN2CCOCC2)C(=O)N1Cc1ccc(CN2C(=O)N(CN3CCOCC3)CN(CN3CCOCC3)C2=O)cc1 ? inactive

Short answer needed: outcome of this test for COC(=O)c1c(C(=O)OC)c2cc(C(=O)c3ccccc3)ccn2c1Cl ? inactive

Short answer needed: outcome of this test for CC1=C(C(=O)N[C@@H](CC(C)C)C(=O)O)N2C(=O)[C@@H](NC(=O)C(N)c3ccccc3)[C@H]2SC1 (stereo partly specified) ? inactive

Short answer needed: outcome of this test for COCN1C(=O)[C@@H]2CCCN2C(=O)c2cc(Cl)ccc21 ? inactive

Short answer needed: outcome of this test for COc1cc(O)ccc1C(=S)SC ? inactive

Short answer needed: outcome of this test for O=C(/C=C/c1ccc(/C=C/C(=O)c2ccc(O)cc2)cc1)c1ccc(O)cc1 ? inactive

Short answer needed: outcome of this test for CCCC(=O)Nc1ccc2c(c1)CN1C(=O)c3ccccc3C1=N2 ? inactive

Short answer needed: outcome of this test for CN1CCC/C1=C1/C(=O)N(c2ccccc2)N=C1c1ccc[nH]1 ? inactive

----------
# Tested on: MOLT-4
# measurement_notes: NCI tumour cell line growth inhibition, 48 h
The source made the active and inactive calls. Cut-off read from the data, not from the text of the source: active = GI50 up to about 1.1 µM and inactive = higher.
quantity_measured: GI50

Cc1c2c(cc3c1C(=O)C(O)=C([C@@H](C)CO)C3=O)C(C)(C)CCC2
13.4 µM (inactive)
O=C(NCCCNC(=O)c1ccc2c(O)c(O)ccc2c1)c1ccc2c(O)c(O)ccc2c1
20.4 µM (inactive)
Cc1c2c(c(C)n1-c1ccccc1)C(=O)N(CCCCN1CCN(c3ccccc3)CC1)C2=O
5.71 µM (inactive)
COc1ccc(NC(=O)CC2SC(Nc3ccc(Cl)cc3C)=NC2=O)c([N+](=O)[O-])c1 (stereo not given)
> 100 µM (inactive)
Cc1ccc(C(CC(=O)C(C)(C)CN2CCCCC2)SCCS(=O)(=O)O)cc1 (stereo not given)
20.8 µM (inactive)
C/C(=N\c1cccc(Cl)c1)c1ccncc1
> 100 µM (inactive)

Batch of 2 compounds: report GI50 for each.
1. O=C(O)Cn1ccc(=O)c2cc([N+](=O)[O-])ccc21
2. O=C1CSC(c2ccc([N+](=O)[O-])cc2)N1c1nc(-c2ccc3c(c2)CCCC3)cs1 (stereo not given)

1: > 100 µM (inactive); 2: > 100 µM (inactive)

Batch of 2 compounds: report GI50 for each.
1. COC(=O)[C@@H]1OC(C)(c2ccccc2)O[C@H]1C(=O)OC
2. O=C(O)CN(c1ccccc1)S(=O)(=O)c1cccc([N+](=O)[O-])c1

["> 100 µM (inactive)", "> 100 µM (inactive)"]

----------
# System: SK-MEL-5
# measurement_notes: NCI tumour cell line growth inhibition, 48 h
Calls of active or inactive are those of the source. No stated cut-off is given here; in the data, active = GI50 up to about 1.1 µM and inactive = higher.
quantity_measured: GI50

Consider the worked cases shown below.
O=C(/C=C/c1ccc(/C=C/C(=O)c2ccc(O)cc2)cc1)c1ccc(O)cc1
> 100 µM (inactive)
COc1ccc(CN(CCc2c[nH]c3ccccc23)Cc2ccc(OC)cc2)cc1
2.77 µM (inactive)
CC(C)(CN1CCCCC1)C(=O)CC(SCCN)c1ccc(Cl)cc1 (stereo unspecified)
1.73 µM (inactive)

Batch of 2 compounds: report GI50 for each.
1. C=CC1C(OC2OC(CO)C(O)C(O)C2O)OC=C(C(=O)OC)C1CC=O (stereo unspecified)
2. N#CCCN(CCC#N)c1ccc(/C=C2\N=C(c3ccccc3)N(c3ccccn3)C2=O)cc1

1: > 100 µM (inactive); 2: > 100 µM (inactive)

Provide measured GI50 value, entry: COc1c(C)cc(O)cc1C=O > 100 µM (inactive)
